- Chemical string: "CCOC(=O)CN1c2ccccc2Oc2ccccc21"
  melting point: "96 to 97 °C"
- Chemical string: "N#Cc1cc(N)nc(SCc2ccc3ccccc3c2)n1"
  melting point: "154 to 155 °C"
- Chemical string: "O=c1n(C2CCCCC2)c2cc(Cl)ccc2n1S(=O)(=O)c1ccc([N+](=O)[O-])cc1"
  melting point: "162 °C"
- Chemical string: "O=c1c2ccc(F)cc2nc(CSc2ncnc3[nH]cnc23)n1-c1ccccc1Cl"
  melting point: "151 to 154 °C"
- Chemical string: "CNC1([C@@H]2CCN(c3cc(N)c4c(=O)c(C(=O)O)cn([C@@H]5C[C@@H]5F)c4c3C)C2)CC1"
  melting point: "129 to 131 °C"
